Just for reference, patent US20120202885A1 is where these values come from.

Assay: 14-day HPR dose response on serum retinol (LC/MS of serum extract)
Type: in vivo, mice
Settings: abca4 null mutant, mouse, serum, intraperitoneal; 20 mg/kg HPR; read-out: steady state concentration of HPR in serum
measurement-label: concentration at 14 days (nM)
Enter your answer as a number in nM; do not include the unit.

stdin: // lookup concentration at 14 days for CC1=C(/C=C/C(C)=C/C=C/C(C)=C/C(=O)Nc2ccc(O)cc2)C(C)(C)CCC1 [HPR, N-(4-hydroxyphenyl)retinamide]
stdout: 1750
